System: CD2F1 mice, L1210 leukemia ip, survival T/C
Assay: NCI In Vivo Anticancer Drug Screen. Data for tumor model L1210 Leukemia (intraperitoneal) in CD2F1 (CDF1) mice
Conditions: endpoint: mean survival time; dose: 25.0 mg/kg/injection; schedule: Q01DX005 (ip); vehicle: distilled water + Tween-80; higher = longer survival
Toxic doses and inconclusive results are not listed.
Hi there, I'd appreciate the recorded T/C for every entry that follows.

CC1C=C(Br)C(=O)C(n2cnc3c(=O)n(C)c(=O)n(C)c32)O1 (centres undefined) :: 97 % of control

Parameter requested: T/C. Apply to each item below.
1. Nc1ncnc2c1c1c(=O)[nH]c(=O)[nH]c1n2C1OC(CO)C(O)C1O (centres undefined)
2. Cn1c(=O)c2c(ncn2CC(=O)NNC(=S)Nc2ccccc2)n(C)c1=O
3. NNc1nc2c(=O)[nH]cnc2n1C1OC(CO)C(O)C1O (centres undefined)

Result:
["116 % of control", "121 % of control", "98 % of control"]
